- MEASUREMENT DESCRIPTION: Plasma concentration in mouse xenografted with human A375M cells at 100 mg/kg, po administered as single dose in 10% HPbCD measured 8 hrs post dose by LC/MS/MS
- Assay type: ADME, organism-based
- Design: dose 100 mg/kg, route oral
REPORTED ENDPOINT: concentration at 8 h (µM)
Respond numerically; units are µM and should not be typed.

Q) Requested field: concentration at 8 h. Item: CN(C)Cc1cc(C(=O)N[C@@H]2CCc3ccc(Oc4ccnc5c4CCC(=O)N5)cc3C2)cc(C(F)(F)F)c1
A) 29

---

- TARGET UNDER TEST: Serine/threonine-protein kinase B-raf (Homo sapiens, UniProt P15056, V600E)
- Sequence (P15056 2-766 V600E limits assumed): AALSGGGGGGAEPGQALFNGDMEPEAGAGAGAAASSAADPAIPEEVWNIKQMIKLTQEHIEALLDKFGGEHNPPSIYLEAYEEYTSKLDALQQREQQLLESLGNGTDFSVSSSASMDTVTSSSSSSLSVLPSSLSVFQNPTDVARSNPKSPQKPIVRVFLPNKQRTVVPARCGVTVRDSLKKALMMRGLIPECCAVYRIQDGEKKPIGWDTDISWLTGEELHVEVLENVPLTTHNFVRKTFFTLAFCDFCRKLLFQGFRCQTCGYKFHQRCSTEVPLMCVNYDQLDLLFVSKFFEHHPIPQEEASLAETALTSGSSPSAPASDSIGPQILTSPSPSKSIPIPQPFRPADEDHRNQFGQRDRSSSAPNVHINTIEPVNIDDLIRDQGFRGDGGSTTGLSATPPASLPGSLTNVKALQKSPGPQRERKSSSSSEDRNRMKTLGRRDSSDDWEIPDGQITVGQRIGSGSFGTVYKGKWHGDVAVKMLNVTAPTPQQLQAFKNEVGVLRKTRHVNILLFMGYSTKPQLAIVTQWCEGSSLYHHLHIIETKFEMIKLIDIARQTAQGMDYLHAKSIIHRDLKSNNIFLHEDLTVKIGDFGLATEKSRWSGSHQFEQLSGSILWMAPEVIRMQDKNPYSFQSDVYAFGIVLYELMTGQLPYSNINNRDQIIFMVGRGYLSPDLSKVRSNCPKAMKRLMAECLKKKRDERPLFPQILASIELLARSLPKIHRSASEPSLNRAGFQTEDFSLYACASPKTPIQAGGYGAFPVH
- MEASUREMENT DESCRIPTION: Inhibition of raf kinase in human A375 cells assessed as decrease in MEK-mediated ERK phosphorylation after 3 hrs using 3,3',5,5'-tetramethylbenzidine liquid substrate system
- Type: cell-based
- CONDITIONS: a-375
REPORTED ENDPOINT: IC50

# annotated cases, reported IC50 shown
CN(C)Cc1cc(C(=O)N[C@@H]2CCc3ccc(Oc4ccnc(NC(=O)C5CC5)c4)cc3C2)cc(C(F)(F)F)c1
70 nM
CN(C)Cc1cc(NC(=O)[C@H]2CCc3ccc(Oc4ccnc(NC(=O)C5CC5)c4)cc3C2)cc(C(F)(F)F)c1
130 nM
CNC(=O)c1cc(Oc2ccc3c(c2)CC(C(=O)Nc2ccc(Cl)c(C(F)(F)F)c2)CC3)ccn1 (racemic)
2900 nM
CNC(=O)c1cc(Oc2ccc(CCC(=O)Nc3ccc(Cl)c(C(F)(F)F)c3)cc2)ccn1
> 25000 nM
CC(C)NCc1cc(NC(=O)[C@H]2CCc3ccc(Oc4ccnc5c4CCC(=O)N5)cc3C2)cc(C(F)(F)F)c1
110 nM
CC(C)NCc1cc(NC(=O)C2CCc3ccc(Oc4ccnc(NC(=O)C5CC5)c4)cc3C2)cc(C(F)(F)F)c1 (stereo not drawn)
190 nM
CN(C)Cc1cc(C(=O)N[C@H]2CCc3ccc(Oc4ccnc(NC(=O)C5CC5)c4)cc3C2)cc(C(F)(F)F)c1
1100 nM

Let us move to another entry and its IC50.
Q) Requested field: IC50. Item: NCc1cc(NC(=O)C2CCc3ccc(Oc4ccnc(NC(=O)C5CC5)c4)cc3C2)cc(C(F)(F)F)c1 (stereo not drawn)
A) 150 nM

---

- MEASUREMENT DESCRIPTION: Plasma concentration in mouse xenografted with human A375M cells at 75 mg/kg, po administered as single dose in 10% HPbCD measured 4 hrs post dose by LC/MS/MS
- Format: ADME, organism-based
- Set-up: dose 75 mg/kg, route oral
REPORTED ENDPOINT: concentration at 4 h (µM)
Respond numerically; units are µM and should not be typed.

Q) Requested field: concentration at 4 h. Item: CC(C)(N)c1cc(C(=O)N[C@@H]2CCc3ccc(Oc4ccnc5c4CCC(=O)N5)cc3C2)cc(C(F)(F)F)c1
A) 23

---

- TARGET UNDER TEST: Serine/threonine-protein kinase B-raf (Homo sapiens, UniProt P15056, V600E)
REPORTED ENDPOINT: IC50 (nM)
Respond numerically; units are nM and should not be typed.

# annotated cases, reported IC50 shown
CNC(=O)c1cc(Oc2ccc(CCC(=O)Nc3ccc(Cl)c(C(F)(F)F)c3)cc2)ccn1
61
CNC(=O)c1cc(Oc2ccc3c(c2)CC(C(=O)Nc2cc(CN)cc(C(F)(F)F)c2)CC3)ccn1 (stereo not given)
20
CNC(=O)c1cc(Oc2cccc(CCC(=O)Nc3ccc(Cl)c(C(F)(F)F)c3)c2)ccn1
47
NCc1cc(NC(=O)C2CCc3ccc(Oc4ccnc(NC(=O)C5CC5)c4)cc3C2)cc(C(F)(F)F)c1 (stereo not given)
8

Let us move to another entry and its IC50.
Q) Form entry - test system: Serine/threonine-protein kinase B-raf (Homo sapiens, UniProt P15056, V600E); read-out: IC50; compound: CC(C)NCc1cc(NC(=O)C2CCc3ccc(Oc4ccnc(NC(=O)C5CC5)c4)cc3C2)cc(C(F)(F)F)c1 (stereo not given)
A) 5

---

- MEASUREMENT DESCRIPTION: AUC (0 to 24 hrs) in mouse at 10 mg, po in 20% HPbCD vehicle
- Assay type: ADME, organism-based
- Design: dose 10 mg, time < 24 hr, route oral
- CONDITIONS: plasma
REPORTED ENDPOINT: AUC(0-t) at 24 h (µM·h)
Respond numerically; units are µM·h and should not be typed.

# annotated cases, reported AUC(0-t) at 24 h shown
NCc1cc(NC(=O)C2CCc3ccc(Oc4ccnc(NC(=O)C5CC5)c4)cc3C2)cc(C(F)(F)F)c1 (stereo not drawn)
0.58
CC(C)NCc1cc(NC(=O)C2CCc3ccc(Oc4ccnc(NC(=O)C5CC5)c4)cc3C2)cc(C(F)(F)F)c1 (stereo not drawn)
15.6

Let us move to another entry and its AUC(0-t) at 24 h.
Q) Requested field: AUC(0-t) at 24 h. Item: CN(C)Cc1cc(NC(=O)[C@H]2CCc3ccc(Oc4ccnc(NC(=O)C5CC5)c4)cc3C2)cc(C(F)(F)F)c1
A) 2.87

---

- Test system: Mus musculus
- MEASUREMENT DESCRIPTION: Plasma clearance in mouse at 1 mg/kg, iv and 10 mg, po in 10% HPbCD vehicle
- Type: ADME, organism-based
- Design: dose 1 mg/kg, route oral
- CONDITIONS: in vivo
REPORTED ENDPOINT: CL (L/h/kg)
Respond numerically; units are L/h/kg and should not be typed.

# annotated cases, reported CL shown
CN(C)Cc1cc(C(=O)N[C@@H]2CCc3ccc(Oc4ccnc5c4CCC(=O)N5)cc3C2)cc(C(F)(F)F)c1
0.23
CC(C)(N)c1cc(C(=O)N[C@@H]2CCc3ccc(Oc4ccnc5c4CCC(=O)N5)cc3C2)cc(C(F)(F)F)c1
0.44
CN(C)Cc1cc(C(=O)N[C@@H]2CCc3ccc(Oc4ccnc(NC(=O)C5CC5)c4)cc3C2)cc(C(F)(F)F)c1
2.14
CNCc1cc(C(=O)N[C@@H]2CCc3ccc(Oc4ccnc5c4CCC(=O)N5)cc3C2)cc(C(F)(F)F)c1
0.73

Let us move to another entry and its CL.
Q) Requested field: CL. Item: CC(C)NCc1cc(NC(=O)[C@H]2CCc3ccc(Oc4ccnc5c4CCC(=O)N5)cc3C2)cc(C(F)(F)F)c1
A) 0.32

---

- MEASUREMENT DESCRIPTION: Plasma concentration in mouse xenografted with human A375M cells at 75 mg/kg, po administered as single dose in 10% HPbCD measured 24 hrs post dose by LC/MS/MS
- Assay type: ADME, organism-based
- Set-up: dose 75 mg/kg, route oral
REPORTED ENDPOINT: concentration at 24 h (nM)
Respond numerically; units are nM and should not be typed.

Q) Requested field: concentration at 24 h. Item: CC(C)(N)c1cc(C(=O)N[C@@H]2CCc3ccc(Oc4ccnc5c4CCC(=O)N5)cc3C2)cc(C(F)(F)F)c1
A) 3000

---

The compounds listed here are annotated with their IC50.
- TARGET UNDER TEST: Serine/threonine-protein kinase B-raf (Homo sapiens, UniProt P15056, V600E)
- MEASUREMENT DESCRIPTION: Inhibition of raf kinase in human A375 cells assessed as decrease in MEK-mediated ERK phosphorylation after 3 hrs using 3,3',5,5'-tetramethylbenzidine liquid substrate system
- Assay type: cell-based
- CONDITIONS: a-375
Respond numerically; units are nM and should not be typed.

# annotated cases, reported IC50 shown
CNC(=O)c1cc(Oc2ccc3c(c2)CC(C(=O)Nc2ccc(CN)c(C(F)(F)F)c2)CC3)ccn1 (stereo unspecified)
5000
CNC(=O)c1cc(Oc2ccc3c(c2)CC(C(=O)Nc2cc(CN)cc(C(F)(F)F)c2)CC3)ccn1 (stereo unspecified)
1400
CC(C)(N)c1cc(NC(=O)[C@H]2CCc3ccc(Oc4ccnc5c4CCC(=O)N5)cc3C2)cc(C(F)(F)F)c1
79
NCc1cc(NC(=O)[C@H]2CCc3ccc(Oc4ccnc(NC(=O)C5CC5)c4)cc3C2)cc(C(F)(F)F)c1
130

Let us move to another entry and its IC50.
Q) Requested field: IC50. Item: NCc1cc(NC(=O)[C@@H]2CCc3ccc(Oc4ccnc(NC(=O)C5CC5)c4)cc3C2)cc(C(F)(F)F)c1
A) 780

---

The compounds listed here are annotated with their bioavailability.
- MEASUREMENT DESCRIPTION: Oral bioavailability in mouse at 10 mg
- Format: ADME, organism-based
- CONDITIONS: in vivo
Respond numerically; units are % and should not be typed.

CNCc1cc(C(=O)N[C@@H]2CCc3ccc(Oc4ccnc5c4CCC(=O)N5)cc3C2)cc(C(F)(F)F)c1
50

Q) Requested field: bioavailability. Item: CN(C)Cc1cc(C(=O)N[C@@H]2CCc3ccc(Oc4ccnc(NC(=O)C5CC5)c4)cc3C2)cc(C(F)(F)F)c1
A) 22

Q) Requested field: bioavailability. Item: CN(C)Cc1cc(NC(=O)[C@H]2CCc3ccc(Oc4ccnc(NC(=O)C5CC5)c4)cc3C2)cc(C(F)(F)F)c1
A) 27

Q) Requested field: bioavailability. Item: CC(C)NCc1cc(NC(=O)[C@H]2CCc3ccc(Oc4ccnc5c4CCC(=O)N5)cc3C2)cc(C(F)(F)F)c1
A) 20
